Assay: gradient 5% acetonitrile 3 min, to 50% in 2 min, to 85% in 15 min, held 3 min, 100 µL/min
Conditions: column: Zorbax Extend-C18 2.1 x 50 mm; eluents: water / acetonitrile, 0.1% formic acid
Categories are assigned from the measured RP-LC retention time using these intervals: low (below 700 s), intermediate (700 s to below 900 s), high (900 s or more)

SMILES CODE	LABEL CLASS
Cc1ccccc1Nc1nc(-c2ccccc2)cs1	high
O=C(Nc1cccn2ncnc12)c1ccc(Cl)s1	intermediate
CC(C)c1nc2ccc(C(=O)NCCCN3CCN(C4CCCCC4)CC3)cc2o1	low
CS(=O)(=O)N1CCN(C(=O)CCCn2nc(-c3ccc(F)cc3)ccc2=O)CC1	low
Cc1nc([C@@H]2CN(C(=O)c3cc(C)n(Cc4ccco4)c3C)C[C@H]2C(N)=O)n[nH]1	low
O=C(Cn1c(=O)c2cc(-c3cccs3)nn2c2ncccc21)NCCc1ccccc1	intermediate
CCCN1C(=O)COc2ccc(-c3noc(Cc4ccc(OC)cc4)n3)cc21	high

---

Assay: gradient 5% acetonitrile 3 min, to 50% in 2 min, to 85% in 15 min, held 3 min, 100 µL/min
Details: column: Zorbax Extend-C18 2.1 x 50 mm; eluents: water / acetonitrile, 0.1% formic acid
MEASURE: RP-LC retention time (s)

SMILES CODE	MEASURE	OBSERVED MEASUREMENT
O=C(Nc1ccc(F)cc1Cl)c1c(O)c2cccnc2n(-c2cccc(F)c2)c1=O	RP-LC retention time	1300
Cc1cc(C(=O)N2CCOCC2)nn1CC(=O)NCCc1c[nH]c2ccccc12	RP-LC retention time	637
C=CCN1CCN(c2nc3cc(C(=O)OC)ccc3c(=O)n2-c2ccc(OC)c(OC)c2)CC1	RP-LC retention time	631
COc1ccc(OCc2nnc3sc(-c4ccc5ccccc5n4)nn23)cc1	RP-LC retention time	1040
COc1ccc(NC(=O)NCCc2cn(C)c3ncccc23)cc1OC	RP-LC retention time	612

---

Experiment: gradient 5% acetonitrile 3 min, to 50% in 2 min, to 85% in 15 min, held 3 min, 100 µL/min
Conditions: column: Zorbax Extend-C18 2.1 x 50 mm; eluents: water / acetonitrile, 0.1% formic acid
Reported RP-LC retention time is given for each of the following compounds.

COMPOUND	MEASUREMENT UNITS	RP-LC retention time
O=C(CCc1nc2cccnc2n1-c1ccccc1)NCCc1c[nH]c2ccccc12	s	706
CCSc1nnc(NC(=O)CCc2csc(NC(=O)c3cccs3)n2)s1	s	788
COc1nn(C)cc1C(=O)Nc1ccc(C(=O)Nc2cccc(-c3csc(C)n3)c2)cc1	s	748
CCCc1nnc(-c2cccnc2N2CCN(C(=O)c3ccc4ncccc4c3)CC2)o1	s	660
O=C(NCC#CCN1CCc2ccccc2C1)NC1CCCCC1	s	566
CC(=O)Nc1ccc(NC(=O)C2CC(=O)N(CCc3c[nH]c4ccc(Cl)cc34)C2)cc1 (centres undefined)	s	679
CCn1c(C(=O)N2CCN(c3cccc(C)c3C)CC2)cc2sccc21	s	1070
Cc1cc(N2CCN(C(=O)c3ccc(Br)cc3)CC2)nc2nnc(C)n12	s	563
Cc1cc(C)c(NC(=O)Cn2cnc(C)c(C)c2=O)c(C)c1	s	674

---

# RP-LC retention time per entry
Experiment: gradient 5% acetonitrile 3 min, to 50% in 2 min, to 85% in 15 min, held 3 min, 100 µL/min
Settings: column: Zorbax Extend-C18 2.1 x 50 mm; eluents: water / acetonitrile, 0.1% formic acid
MEASURE: RP-LC retention time (s)

COMPOUND	MEASUREMENT UNITS	OBSERVED MEASUREMENT
CCC(=O)c1cn(CC(=O)NCc2cc3c(cc2OC)OCCCO3)c2ccccc12	s	837
CCc1ccccc1NC(=O)C1CC(=O)N(c2ccc3c(c2)CCN3C(=O)C2CC2)C1 (stereo not given)	s	780
COc1ccc(S(=O)(=O)CCCC(=O)Nc2nccs2)cc1	s	661
O=C(NCc1ccco1)c1ccc2cnn(Cc3cccc(Cl)c3)c2c1	s	947
CN1CC=C(c2noc(CCC(=O)NCc3ccc4c(c3)OCO4)n2)CC1	s	587

Sourced from the METLIN SMRT retention time set (Domingo-Almenara et al. 2019)
